Assay Remarks: Stat Signaling Pathway (AID 446);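 note: ME-180 cervical cancer cells given 40 pM IL-6 alongside compound; SIE-controlled beta-lactamase reporter measured as 460/530 nm FRET emission ratio; % is set by controls: 0 for no effect and ±100 for the full control effect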
Settings: ME-180 (cervical carcinoma) SIE beta-lactamase reporter, IL-6 stimulated, 5 h; at 17.2 µM (top of the series) unless noted
Results filed as inconclusive are left out.
Recorded Metric: activity, negative = inhibition (%)
Reply numerically in %, unit not repeated.

Looking up Cc1cccc(-n2ncc3c(NCc4ccco4)ncnc32)c1 , I see its activity, negative = inhibition listed as -20.3

Value of activity, negative = inhibition reported for the molecule CCc1cccc(CC)c1N(COC)C(=O)Cn1nnc2ccccc21 is -3.83

CC(C)OC(=O)CC1=NC(=O)CS1 yielded activity, negative = inhibition of 9.47

Documented activity, negative = inhibition of Cn1ncc2nnn(-c3ccccc3)c(=O)c21 : 3.98

In plain terms, CCCCNC(=O)N1CCOCCOCCN(C(=O)NCCCC)CCOCC1 has a documented activity, negative = inhibition of 5.68

Sure, the documented activity, negative = inhibition for Cn1c(N)c(C#N)c2c(c1=S)CSC(C)(C)C2 is -2.98

Item: CC(NC(=O)NCCCn1ccnc1)(C(F)(F)F)C(F)(F)F | activity, negative = inhibition: 5.85

According to the records, this molecule Cn1c(Cn2cnc3ccccc32)nc2ccccc21 displays activity, negative = inhibition of -2

activity, negative = inhibition reported for this molecule Cc1ccccc1-n1c(=O)/c(=C\c2ccco2)s/c1=C(/C#N)C(=O)Nc1ccccc1 : -25.9

response.value for O=C1CCC(=O)N1c1nc2nc(-c3ccccc3)cc(-c3ccccc3)n2n1 (field: activity, negative = inhibition) = -1.33

Input Cc1nc(NS(=O)(=O)c2ccccc2)sc1NC(=O)OC(C)C . Output activity, negative = inhibition: 3.96

According to the records, this molecule COc1cccc(-c2nc(NC(C)(C)C)c3ccccc3n2)c1O displays activity, negative = inhibition of -74.9

----------
Assay Remarks: qHTS profiling for inhibitors of Plasmodium falciparum proliferation (AID 504749); note: nearly all actives have a fitted effect of over 60% in size;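 for activity, negative = inhibition: 0% = DMSO vehicle and full inhibition = artemisinin control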
Settings: P. falciparum in erythrocytes, SYBR Green DNA, 72 h; at 28.7 µM (top of the series); parasite line A
Inconclusive results are not listed.
Recorded Metric: activity, negative = inhibition (%)
Give the value in % but do not write % after it.

Below, 5 molecules whose answers are already recorded.
CC(=O)NC1[C@H]([C@H](O)[C@H](O)CO)OC(C(=O)O)=C[C@H]1N=C(N)N (some centres undefined); 4.99
CN1[C@@H]2CC[C@@H]1CC(OC(=O)[C@H](CO)c1ccccc1)C2 (some centres undefined); 1.09
C[S+](C)CC[C@H](N)C(=O)O; 2.14
O=C(O)[C@H]1C[C@@H](CP(=O)(O)O)CCN1; -7.9
Cc1cc2nc3c(=O)[nH]c(=O)nc-3n(CC(O)C(O)C(O)COP(=O)(O)O)c2cc1C (centres undefined); -0.201

# activity, negative = inhibition of CCCCCCCCCCCC(=O)OCC(O)C1OCC(O)C1O (centres undefined) = -2.73

The molecule listed as CO/N=C(/C(=O)N[C@@H]1C(=O)N2C(C(=O)O)=C(CSC(=O)c3ccco3)CSC12)c1csc(N)n1 (some centres undefined) shows activity, negative = inhibition equal to 2.76

----------
System: TAB165
Assay Remarks: qHTS profiling for inhibitors of Plasmodium falciparum proliferation (AID 504749); note: nearly all actives have a fitted effect of over 60% in size; note: potency is the fitted concentration of half-maximal effect
Settings: P. falciparum in erythrocytes, SYBR Green DNA, 72 h; series mostly up to 28.7 µM
Records with an inconclusive call do not appear. Activity calls are given as the source filed them. The call rests on the fitted dose curve; in most records, active means well fitted inhibition curve with a large enough effect; inconclusive means small, poorly fitted or top-dose-only effect; inactive means flat fitted curve, though single readings scatter.
Recorded Metric: Potency

Would you please look over these solved cases?
C[C@]12CC[C@@H]3c4ccc(O)cc4CC[C@H]3[C@@H]1CCC2OC(=O)CCC1CCCC1 (stereo not given in full); inactive
CNC1C(O)C(OC2C(NC(=O)C(O)CN)CC(N)C(OC3OC(CN)C(O)C(O)C3O)C2O)OCC1(C)O (stereo not given); inactive
COc1cccc(OC)c1C(=O)NC1C(=O)N2C1SC(C)(C)C2C(=O)O (stereo not given); inactive
CC(=O)OCC(=O)[C@@]1(O)CCC2C3CCC4=CC(=O)C=CC4(C)C3C(O)C[C@]21C (stereo not given in full); inactive
O=C(O)c1ccc(N[C@@H]2OC[C@@H](O)[C@@H](O)[C@@H]2O)cc1; inactive
CNC1=CN(O)C(c2ccccc2)=c2cc(Cl)ccc2=N1; 4.47 µM (active)
CC1(C)C2CC[C@]1(C)[C@@H](O)C2; inactive
CC(CCC(=O)O)C1CCC2C3C(=O)C[C@@H]4CC(=O)CC[C@@]4(C)C3CC(=O)[C@]12C (stereo not given in full); inactive
CN[C@H](C)CCC=C(C)C; 0.251 µM (active)

# evaluate next
Reported Potency of CC1=C(/C=C/C(C)=C\C=C\C(C)=C\C=C\C=C(C)\C=C\C=C(C)\C=C\C2=C(C)C[C@@H](O)CC2(C)C)C(C)(C)C[C@H](O)C1 : 11.2 µM (active)

----------
Assay Remarks: qHTS assay for environmental chemicals that activate the Aryl hydrocarbon Receptor (AhR) signaling pathway (AID 651777); note: % of control where 0% means no effect; nearly all actives have a fitted effect of over 15% in size
Settings: 1A2-DRE human hepatoma cells, luciferase, 24 h; stronger effect = higher value
Results filed as inconclusive are left out.
Recorded Metric: activation (%)
Give just the numeric value; % need not be written.

Please review the following examples before continuing.
CC1(C)CCC(C)(C)c2cc(C(=O)Nc3ccc(C(=O)O)cc3)ccc21; -0.1
CC1CCC(C(C)C)C(O)C1 (stereo not given); -1.72
CCCCCCCC[N+](CCCCCCCC)(CCCCCCCC)CCCCCCCC; -8.33
CC/C(=C(\c1ccccc1)c1ccc(OCCN(C)C)cc1)c1ccc(O)cc1; -5.29
Cc1ccc(S(=O)(=O)Oc2ccc(N=Nc3ccc(-c4ccc(N=Nc5c(O)ccc6cc(S(=O)(=O)O)cc(S(=O)(=O)O)c56)c(C)c4)cc3C)cc2)cc1; -2.33

Recorded activation (molecule CCCCCC/C(C=O)=C\c1ccccc1 ): -0.354

The molecule identified as CNc1ccc(O)cc1 registered its activation at 7.98

Looking up O=C(OCC(COC(=O)c1ccccc1)(COC(=O)c1ccccc1)COC(=O)c1ccccc1)c1ccccc1 , I found its activation recorded as -0.471

Measured activation, Cc1cc(C(C)(C)CC(C)(C)C)ccc1OCCOCC[N+](C)(C)Cc1ccccc1 : 0.146

Summary for this molecule, CO[C@H]1/C=C/O[C@@]2(C)Oc3c(C)c(O)c4c(O)c(c5c(c4c3C2=O)NC2(CCN(CC(C)C)CC2)N=5)=NC(=O)/C(C)=C\C=C\[C@H](C)[C@H](O)[C@@H](C)[C@@H](O)[C@@H](C)[C@H](OC(C)=O)[C@@H]1C : activation is -1.73

response.value for O=C1OC2(c3cc(Br)c(O)c(Br)c3Oc3c2cc(Br)c(O)c3Br)c2c(Cl)c(Cl)c(Cl)c(Cl)c21 (field: activation) = -2.87

The recorded activation for CCC(C)Nc1ccc(NC(C)CC)cc1 (stereo not given) is -3.51

Record summary for CC(=O)Nc1ccc(C(=O)CCl)cc1 : reported activation = 3.94

Query Cc1cccc(O)c1C yields activation of -0.837

Value of measured activation for the entry C/C=C1\C(=O)C[C@H]2[C@@H]3CCC4=CC(=O)CC[C@]4(C)[C@H]3CC[C@]12C : -0.115

----------
Test Target: Cytochrome P450 2D6 (Homo sapiens)
Assay Remarks: qHTS Assay for Inhibitors and Substrates of Cytochrome P450 2D6 (AID 891); note: nearly all actives have a fitted effect of over 60% in size
Settings: recombinant CYP2D6, luciferin-ME EGE luminescence; series mostly up to 57.1 µM
Inconclusive results are not listed. Calls of active or inactive are those of the source. Calls follow the shape of the dose curve; as a rule, active = well fitted inhibition curve with a large enough effect; inconclusive = small, poorly fitted or top-dose-only effect; inactive = no such curve, though single readings can be large or run the other way.
Respond with a class label; see active, inactive

Completed entries (count: 5):
COc1ccccc1-c1cc(=O)c2cc(O)ccc2o1; inactive
CC(C)C[C@@H](CC(=O)N[C@@H](CCC(=O)O)CC(=O)O)NC(=O)[C@@H]1CCCC[C@H]1NC(=O)C[C@H](CCCN)NC(=O)C[C@H](Cc1c[nH]c2ccccc12)NC(=O)[C@@H]1CNCC[C@H]1N; inactive
CN(CCc1ccc(Cl)c(Cl)c1)CCN1CCCCCC1; active
CC(C)[C@@H](CC(=O)N[C@@H]1CCNC[C@H]1C(=O)N[C@H](CC(=O)N[C@@H](CCC(=O)O)CC(=O)O)Cc1c[nH]c2ccccc12)NC(=O)C[C@H](Cc1c[nH]c2ccccc12)NC(=O)[C@@H]1CCCC[C@H]1N; inactive
CC(C)C1=CC2=CC[C@H]3[C@@](C)(CCC[C@]3(C)C(=O)O)[C@@H]2CC1; inactive

# input Could you check what this test reported for CC(C)C[C@@H](CC(=O)N[C@@H](CCC(=O)O)CC(=O)O)NC(=O)[C@@H]1CNCC[C@H]1NC(=O)C[C@H](CCCN)NC(=O)C[C@H](Cc1c[nH]c2ccccc12)NC(=O)[C@@H]1CCCC[C@H]1N ?
# output inactive

# input Hi team, can someone confirm the assay call for C/C(=C\CNc1ncnc2c1ncn2[C@@H]1O[C@@H](CO)[C@@H](O)[C@H]1O)CO ?
# output inactive
